Target System: OsSMF1 (Oryza sativa, UniProt Q6ZLB0 1-436)
Sequence: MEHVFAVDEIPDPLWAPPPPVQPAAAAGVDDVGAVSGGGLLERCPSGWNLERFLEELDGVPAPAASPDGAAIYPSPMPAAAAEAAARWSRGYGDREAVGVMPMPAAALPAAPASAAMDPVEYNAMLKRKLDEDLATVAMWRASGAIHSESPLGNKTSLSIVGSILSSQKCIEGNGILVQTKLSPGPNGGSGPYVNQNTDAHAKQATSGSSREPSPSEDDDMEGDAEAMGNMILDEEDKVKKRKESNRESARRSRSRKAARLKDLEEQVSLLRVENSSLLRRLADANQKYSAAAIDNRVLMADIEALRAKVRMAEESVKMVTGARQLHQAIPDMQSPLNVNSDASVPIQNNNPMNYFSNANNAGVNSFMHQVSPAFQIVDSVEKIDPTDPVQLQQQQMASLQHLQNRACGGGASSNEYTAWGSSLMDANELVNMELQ
Procedure Details: protein-binding microarray (RPBM); PBS, 2% BSA, 51.3 ng/ul salmon testes DNA, 50 uM zinc acetate, 200 nM TF, 25 C, 1 h; high values mean tight binding
Settings: protein: recombinant; tags: N-terminal polyhistidine and DsRed monomer fusion (pET32a); chain copies: 2; label: CyDye5-dUTP incorporated in the synthesized complementary strand; 3' TTTTT single-stranded linker to array surface; dsDNA, one strand shown
Whole data set: some 39,000 sequences, median “fluorescence intensity (a.u.)” near 4,300, cut for the highest 2% near 39,000. The list comes from a sample in which the highest values are over-represented; it also holds close analogues and randomly drawn sequences.
Experimental Readout: binding signal

GCAGCCATTTACGCTTTCCACGTCAGTGCATGATGGAGTACGGAGTCACCTAGTGCAG	16800 fluorescence intensity (a.u.)
GCCTCGTTTGATTGGTCACATGCATGGAAAGAGACTCACACGGAGTCACCTAGTGCAG	16700 fluorescence intensity (a.u.)
AAAACACAGGAATGGTCGTTTGATTGGAGCGCAGGAGAAACGGAGTCACCTAGTGCAG	64900 fluorescence intensity (a.u.)

Data point: CAACTTTGGAAGAACTAAACACAGCATATGACAGTGCAGTCGGAGTCACCTAGTGCAG ; binding signal = 4130 fluorescence intensity (a.u.)

Data point: TTGCAAACACAGGAATTACCGTTTGATTGAACCACAGGAACGGAGTCACCTAGTGCAG ; binding signal = 12300 fluorescence intensity (a.u.)

---

Listed sequences paired with reported binding signal
Target System: OsSMF1 (Oryza sativa, UniProt Q6ZLB0 1-436)
Sequence: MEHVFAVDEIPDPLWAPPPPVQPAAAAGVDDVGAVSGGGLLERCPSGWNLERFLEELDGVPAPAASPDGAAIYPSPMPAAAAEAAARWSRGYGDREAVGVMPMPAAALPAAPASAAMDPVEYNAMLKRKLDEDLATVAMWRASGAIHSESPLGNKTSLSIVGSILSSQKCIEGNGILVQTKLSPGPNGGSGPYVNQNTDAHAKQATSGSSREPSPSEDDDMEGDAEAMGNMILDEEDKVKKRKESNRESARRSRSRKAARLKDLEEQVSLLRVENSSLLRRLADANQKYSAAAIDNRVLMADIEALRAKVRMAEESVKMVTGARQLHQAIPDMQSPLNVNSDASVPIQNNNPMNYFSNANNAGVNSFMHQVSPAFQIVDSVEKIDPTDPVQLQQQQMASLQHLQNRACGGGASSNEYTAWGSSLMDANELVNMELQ
Procedure Details: protein-binding microarray (RPBM); PBS, 2% BSA, 51.3 ng/ul salmon testes DNA, 50 uM zinc acetate, 200 nM TF, 25 C, 1 h; high values mean tight binding
Settings: protein: recombinant; tags: N-terminal polyhistidine and DsRed monomer fusion (pET32a); chain copies: 2; label: CyDye5-dUTP incorporated in the synthesized complementary strand; 3' TTTTT single-stranded linker to array surface; dsDNA, one strand shown
Whole data set: some 39,000 sequences, median “fluorescence intensity (a.u.)” near 4,300, cut for the highest 2% near 39,000. This excerpt belongs to a sample that is enriched for the highest values.

Please review the entries below; each comes with its answer.
TCTCCCCTCTCCTTCCTCCTCTCCTTTCCCCTCCTCTCTTCGGAGTCACCTAGTGCAG	17100 fluorescence intensity (a.u.)
TGATGGCCGGTGATCAGTGGCATGTGCATGTTATATTATTCGGAGTCACCTAGTGCAG	3260 fluorescence intensity (a.u.)

Data point: TTTACTGTAGCACCACATTGTCAAATTATGACGTAATTAGCGGAGTCACCTAGTGCAG ; binding signal = 5440 fluorescence intensity (a.u.)

Data point: AAACAAAGTGGCACAGATAAAATGGAACATAGAAGTGGCACGGAGTCACCTAGTGCAG ; binding signal = 40700 fluorescence intensity (a.u.)

Data point: TCCTGTCCTTCTTTCTCTTCAAGTCCTTCCTCTTCACTCCCGGAGTCACCTAGTGCAG ; binding signal = 65500 fluorescence intensity (a.u.)

Data provenance: paper PMC7819943
